- Subject of test: CaAbp1-D2
- Protocol text: SPOT peptide array binding signal intensity (averaged, normalized) (arbitrary units (background-subtracted, floor 0; scale differs between SH3 domains)); higher = stronger binding of the SH3 domain to the peptide
Would you mind labelling by SPOT peptide array binding signal intensity? At or over 200 is T, under is F.

Binder	Class name
KNRKNLPTIPIRLSG	T
GPPPPLPPPLFPSSS	F
RRSKSLPTTPGIRSG	T
RNNRPVPPPPPMRTT	F
TKPTPPPKPSHLKPK	T
IAPIPMPKPNPTHIS	F
RKRAPTPPAPSRSEK	T
QTREPNEPPPPSPAM	F
YRRKSIPFAPHQITA	F
KKIRLIFTYPSTVGR	T
RMVRRRPLRVQFSAR	T
SPLGAPPPPPHKDHL	F
VQKRKLPLPGSIASA	T
ERPKRRAPPPVPKKP	T
TKIRRRPQQPLTDFT	F
